- Test system: HCI-019 (organoid from a triple-negative breast cancer xenograft)
- experiment-summary: CTG-3D luminescence at 96 h relative to day-0 seeding control (ratio to day 0); higher = more growth / less cytotoxicity; PDxO 3D drug screen (set 2), 96 h, CTG-3D normalised to day-0 seeding control.
- settings: 0.1 µM; days in culture: 215
Y means recorded CTG-3D luminescence at 96 h is 0.7 or above; N means it is below 0.7.

Exercise: API: above_or_equal(metric=CTG-3D luminescence at 96 h, cutoff=0.7) for item O=C(c1cc(Cc2n[nH]c(=O)c3ccccc23)ccc1F)N1CCN(C(=O)C2CC2)CC1 [olaparib]
Solution: Y

Exercise: API: above_or_equal(metric=CTG-3D luminescence at 96 h, cutoff=0.7) for item CO[C@H]1C[C@@H]2CC[C@@H](C)[C@@](O)(O2)C(=O)C(=O)N2CCCC[C@H]2C(=O)O[C@H]([C@H](C)C[C@@H]2CC[C@@H](OCCO)[C@H](OC)C2)CC(=O)[C@H](C)/C=C(\C)[C@@H](O)[C@@H](OC)C(=O)[C@H](C)C[C@H](C)/C=C/C=C/C=C/1C [everolimus]
Solution: N

Exercise: API: above_or_equal(metric=CTG-3D luminescence at 96 h, cutoff=0.7) for item C[C@@H](Nc1cc(F)cc(F)c1)c1cc(C(=O)N(C)C)cc2c(=O)cc(N3CCOCC3)oc12 [AZD-8186]
Solution: Y

Exercise: API: above_or_equal(metric=CTG-3D luminescence at 96 h, cutoff=0.7) for item CC(C)n1nc(-c2ccc3oc(N)nc3c2)c2c(N)ncnc21 [sapanisertib]
Solution: N
